- ASSAY_NOTES: metabolite determination in brain and thyroid radioactivity after injection of 5-125I-6-NQP
- Assay type: in vivo, rat
- CONDITIONS: 25 uCi; rat brain, 25 μCi, 6 h; read-out: unmetabolized radioligand in brain (organic phase radioactivity)

{"columns": ["MOLECULE", "remaining at 6 h"],
 "data": [
  ["O=[N+]([O-])c1ccc2nc(N3CCNCC3)ccc2c1[125I] [5-^125 I-6-NQP]", "> 98%"]
]}

====

pKi listing for selected compounds.
- TARGET_UNDER_TEST: 5-HT (serotonin) reuptake complex (Rattus norvegicus, UniProt P31652)
- Construct: Rat cortical brain homogenates were incubated with 3H-paroxetine; from tissue; host or cells: rat cortical brain homogenates
- Sequence (P31652 whole entry, one chain of several): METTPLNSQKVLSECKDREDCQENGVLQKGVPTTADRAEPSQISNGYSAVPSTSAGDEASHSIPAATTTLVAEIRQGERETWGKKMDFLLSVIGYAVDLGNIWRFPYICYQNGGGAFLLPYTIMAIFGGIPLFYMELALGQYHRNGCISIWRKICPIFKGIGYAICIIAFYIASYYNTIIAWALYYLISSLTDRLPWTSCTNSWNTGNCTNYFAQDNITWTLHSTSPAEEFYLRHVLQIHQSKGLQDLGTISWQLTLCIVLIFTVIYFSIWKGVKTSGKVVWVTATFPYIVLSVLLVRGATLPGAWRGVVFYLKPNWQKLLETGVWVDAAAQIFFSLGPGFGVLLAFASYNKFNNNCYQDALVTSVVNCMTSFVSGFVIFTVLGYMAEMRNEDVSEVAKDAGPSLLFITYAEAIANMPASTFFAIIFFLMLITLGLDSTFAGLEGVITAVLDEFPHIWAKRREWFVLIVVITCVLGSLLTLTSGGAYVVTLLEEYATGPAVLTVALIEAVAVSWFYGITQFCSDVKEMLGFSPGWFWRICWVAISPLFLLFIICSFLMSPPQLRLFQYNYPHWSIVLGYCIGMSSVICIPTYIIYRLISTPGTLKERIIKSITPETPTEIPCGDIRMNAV
- ASSAY_NOTES: competition with 3H-paroxetine for the 5-HT reuptake complex in rat cortical brain homogenates (Ki)
- Assay type: binding
- CONDITIONS: rat cortical brain homogenates, 3H-paroxetine displacement; read-out: In vitro Inhibition Constants (Ki) for the 5-HT Reuptake Site
pKi: −log10 of the molar value.

{"columns": ["COMPOUND", "TARGET_UNDER_TEST", "pKi"],
 "data": [
  ["O=[N+]([O-])c1ccc2nc(N3CCNCC3)ccc2c1 [6-NQP, 6-nitro-2-N-piperazinylquinoline, reference compound]", "5-HT (serotonin) reuptake complex (Rattus norvegicus, UniProt P31652)", 9.64],
  ["O=[N+]([O-])c1ccc2nc(N3CCNCC3)cc(Br)c2c1", "5-HT (serotonin) reuptake complex (Rattus norvegicus, UniProt P31652)", 6.70]
]}
